Assay: Mean pharmacokinetic parameters for Rosiglitazone following single oral doses to 32 healthy fasted or fed subjects.
Type: ADME, organism-based
Set-up: dose 8 mg, dose 2 mg, dose 1 mg, route oral
Conditions: human, in vivo; dietary status Fasting, dose 1 mg, dosed compound id 50, dosed compound name ROSIGLITAZONE, gender male and female, regimen Single dose, route oral, tissue Plasma
Property measured: CL/F (mL/min)
Respond with the bare value in mL/min.

Per the records, this compound ( CN(CCOc1ccc(CC2SC(=O)NC2=O)cc1)c1ccccn1.O=C(O)/C=C\C(=O)O (stereo unspecified) [ROSIGLITAZONE MALEATE] ) has CL/F equal to 50.5
